experiment_notes: Release in artificial intestinal juice
Type: physicochemical
study_conditions: t 8 min; permeable bag, amount calculated on 100 mg free base
measurement_kind: Release in artificial intestinal juice, percent of the substance released (%)
// units = %; emit number, no label

Q. Suppose we examine the compound CCCCCCCCCC(=O)O.CN(C)CC1CCCCC1(O)c1cccc(O)c1 (stereo not shown) [C-1] ; what Release in artificial intestinal juice, percent of the substance released value has been reported?
A. 99.87

Q. Try CCCCCCCCCC(=O)O.CN(C)CC1CCCCC1(O)c1cccc(O)c1 (stereo not shown) [C-2] next.
A. 99.73

Q. Same read-out for CN(C)CC1CCCCC1(O)c1cccc(O)c1.O=C(O)C=Cc1ccccc1 (stereo not shown) [A-2] ?
A. 96.27

Q. What about this compound? CN(C)CC1CCCCC1(O)c1cccc(O)c1.CN(C)CC1CCCCC1(O)c1cccc(O)c1.O=C(O)C=CC(=O)O (stereo not shown) [E-2]
A. 96.46

Q. Field entry: CN(C)C[C@H]1CCCC[C@]1(O)c1cccc(O)c1.Cl [HCl-2]
A. 98.83

Q. What about CN(C)CC1CCCCC1(O)c1cccc(O)c1.CN(C)CC1CCCCC1(O)c1cccc(O)c1.O=C(O)CCCCCCCCC(=O)O (stereo not shown) [F-1] ?
A. 99.10

Q. Repeat for the following compound: CN(C)CC1CCCCC1(O)c1cccc(O)c1.O=C(O)C=Cc1ccccc1 (stereo not shown) [A-1]
A. 91.49
